target: Integrin alpha-V/beta-5 (Homo sapiens, UniProt P06756+P18084); test: Antagonist activity at alphavbeta5 integrin receptor (unknown origin) by cell-free ELISA; format: protein-complex assay
quantity name: pIC50
Answers are plain numbers, as −log10 of the molar value.

Check out these entries, answers already filled in.
compound=O=C(N[C@@H](CNC(=O)c1ccc(CN(Cc2nc3ccccc3[nH]2)C(=O)NC2CCCCC2)cc1)C(=O)O)OCc1ccccc1 number=8.77
compound=COc1ccc(S(=O)(=O)N[C@@H](CNc2nc(C)nc(N3CCC(c4ccc5c(n4)NCCC5)CC3)c2C)C(=O)O)cc1 number=8.70
compound="O=C(O)CC1CC(CNC(=O)CCCNc2ccccn2)=CCc2ccccc21 (centres undefined)" number=9.00

Proceed to the following item.
pIC50 recorded for this compound, N=C(N)NCCCc1cn(CC(=O)N[C@@H](CC(=O)O)c2ccccc2)nn1 , is 8.99

====

target: Integrin alpha-4/beta-7 (Homo sapiens, UniProt P13612+P26010); test: Antagonist activity at alpha4beta7 integrin receptor (unknown origin) by cell-free ELISA
quantity name: IC50

Entry COc1ccc(S(=O)(=O)N[C@@H](CNc2nc(C)nc(N3CCC(c4ccc5c(n4)NCCC5)CC3)c2C)C(=O)O)cc1 : IC50 on Integrin alpha-4/beta-7 (Homo sapiens, UniProt P13612+P26010) = > 10 µM

====

Please go through the items and note down their pIC50.
target: Integrin alpha-5/beta-1 (Homo sapiens, UniProt P05556+P08648); test: Antagonist activity at alpha5beta1 integrin receptor (unknown origin) by cell-free ELISA; type: protein-complex assay
Sequence (P05556 21-798 limits assumed): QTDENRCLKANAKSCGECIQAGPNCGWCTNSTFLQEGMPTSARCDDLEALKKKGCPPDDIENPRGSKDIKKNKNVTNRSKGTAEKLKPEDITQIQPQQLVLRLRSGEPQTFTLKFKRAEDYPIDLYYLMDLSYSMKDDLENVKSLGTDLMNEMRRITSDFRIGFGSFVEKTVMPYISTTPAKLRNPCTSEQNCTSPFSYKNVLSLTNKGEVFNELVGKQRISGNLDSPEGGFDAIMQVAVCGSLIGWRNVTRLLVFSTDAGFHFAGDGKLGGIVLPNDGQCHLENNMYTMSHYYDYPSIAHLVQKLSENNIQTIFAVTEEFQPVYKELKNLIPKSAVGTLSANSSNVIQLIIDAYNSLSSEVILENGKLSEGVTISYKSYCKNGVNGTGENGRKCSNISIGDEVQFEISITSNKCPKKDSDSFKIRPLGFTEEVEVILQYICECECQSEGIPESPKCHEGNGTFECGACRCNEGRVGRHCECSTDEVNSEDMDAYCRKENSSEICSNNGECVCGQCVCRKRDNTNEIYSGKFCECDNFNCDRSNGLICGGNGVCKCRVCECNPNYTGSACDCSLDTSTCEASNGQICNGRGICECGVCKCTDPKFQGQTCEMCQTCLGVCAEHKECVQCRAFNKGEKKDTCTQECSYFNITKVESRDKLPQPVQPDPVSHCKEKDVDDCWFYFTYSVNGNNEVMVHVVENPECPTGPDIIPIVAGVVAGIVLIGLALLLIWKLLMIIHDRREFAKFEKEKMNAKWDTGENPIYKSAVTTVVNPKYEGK
Sequence (P08648 42-894 limits assumed): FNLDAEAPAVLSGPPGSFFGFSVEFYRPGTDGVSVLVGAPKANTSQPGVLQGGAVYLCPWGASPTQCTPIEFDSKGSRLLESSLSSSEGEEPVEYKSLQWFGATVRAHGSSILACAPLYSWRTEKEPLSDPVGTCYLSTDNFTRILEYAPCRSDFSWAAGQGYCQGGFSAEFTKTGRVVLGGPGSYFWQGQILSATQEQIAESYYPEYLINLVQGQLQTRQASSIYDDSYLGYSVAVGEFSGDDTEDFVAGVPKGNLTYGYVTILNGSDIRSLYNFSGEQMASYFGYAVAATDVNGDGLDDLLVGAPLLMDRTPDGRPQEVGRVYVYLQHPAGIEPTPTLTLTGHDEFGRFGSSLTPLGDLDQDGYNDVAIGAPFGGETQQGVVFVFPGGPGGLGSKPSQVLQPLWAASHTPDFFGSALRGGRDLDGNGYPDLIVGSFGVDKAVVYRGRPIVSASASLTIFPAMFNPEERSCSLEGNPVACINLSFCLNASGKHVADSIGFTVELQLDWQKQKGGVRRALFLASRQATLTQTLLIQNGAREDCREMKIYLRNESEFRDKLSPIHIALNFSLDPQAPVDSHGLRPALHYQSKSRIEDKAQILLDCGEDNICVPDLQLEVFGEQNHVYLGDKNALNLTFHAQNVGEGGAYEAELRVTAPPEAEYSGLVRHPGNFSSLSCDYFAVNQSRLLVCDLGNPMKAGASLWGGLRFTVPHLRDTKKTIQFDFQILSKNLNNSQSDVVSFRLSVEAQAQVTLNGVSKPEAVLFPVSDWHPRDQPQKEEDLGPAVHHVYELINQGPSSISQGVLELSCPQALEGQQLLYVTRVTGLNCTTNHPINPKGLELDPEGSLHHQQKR
Sequence (P08648 895-1049 limits assumed): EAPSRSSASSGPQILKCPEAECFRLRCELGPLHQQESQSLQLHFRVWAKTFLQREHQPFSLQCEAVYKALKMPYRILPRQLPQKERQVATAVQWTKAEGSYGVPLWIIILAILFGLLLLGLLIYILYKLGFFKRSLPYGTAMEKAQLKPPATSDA
One number for each entry, as −log10 of the molar value.

Check out these entries, answers already filled in.
molecule=O=C(N[C@@H](CNC(=O)c1ccc(CN(Cc2nc3ccccc3[nH]2)C(=O)NC2CCCCC2)cc1)C(=O)O)OCc1ccccc1 number=6.38
molecule=C=Cc1cnc(NC[C@@H]2C[C@]3(CC(C(=O)NC[C@H](NS(=O)(=O)c4c(C)cc(C)cc4C)C(=O)O)=NO3)CN2C(=O)OCCCC)[nH]1 number=9.41

Proceed to the following item.
Entry COc1ccc(S(=O)(=O)N[C@@H](CNc2nc(C)nc(N3CCC(c4ccc5c(n4)NCCC5)CC3)c2C)C(=O)O)cc1 [GLPG-0187] : pIC50 on Integrin alpha-5/beta-1 (Homo sapiens, UniProt P05556+P08648) = 8.11

====

Please go through the items and note down their pIC50.
target: Integrin alpha-V/beta-8 (Homo sapiens, UniProt P06756+P26012); test: Antagonist activity at alphavbeta8 integrin receptor (unknown origin) by cell-free ELISA; assay type: protein-complex assay
Sequence (P06756 31-889 limits assumed): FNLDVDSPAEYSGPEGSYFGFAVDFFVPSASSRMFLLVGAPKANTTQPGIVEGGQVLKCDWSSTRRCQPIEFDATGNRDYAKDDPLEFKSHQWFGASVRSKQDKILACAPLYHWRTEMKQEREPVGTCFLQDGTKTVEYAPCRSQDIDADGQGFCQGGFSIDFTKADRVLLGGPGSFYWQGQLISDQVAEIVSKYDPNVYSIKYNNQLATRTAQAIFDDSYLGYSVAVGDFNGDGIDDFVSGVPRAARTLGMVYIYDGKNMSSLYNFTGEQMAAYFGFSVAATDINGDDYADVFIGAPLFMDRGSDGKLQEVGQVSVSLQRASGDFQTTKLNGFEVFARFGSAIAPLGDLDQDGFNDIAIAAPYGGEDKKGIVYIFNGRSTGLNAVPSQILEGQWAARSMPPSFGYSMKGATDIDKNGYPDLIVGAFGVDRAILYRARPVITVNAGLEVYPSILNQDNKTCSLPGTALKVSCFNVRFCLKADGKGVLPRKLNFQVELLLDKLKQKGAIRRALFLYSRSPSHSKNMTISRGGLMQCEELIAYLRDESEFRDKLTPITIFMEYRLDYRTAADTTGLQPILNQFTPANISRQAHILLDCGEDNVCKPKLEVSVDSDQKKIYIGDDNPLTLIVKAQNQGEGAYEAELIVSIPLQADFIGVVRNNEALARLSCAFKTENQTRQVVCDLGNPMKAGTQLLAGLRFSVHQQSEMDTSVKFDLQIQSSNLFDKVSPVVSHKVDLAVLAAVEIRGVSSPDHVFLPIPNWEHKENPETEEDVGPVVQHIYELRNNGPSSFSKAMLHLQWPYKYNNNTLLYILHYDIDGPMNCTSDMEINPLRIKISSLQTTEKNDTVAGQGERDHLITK
Sequence (P06756 891-1048 limits assumed): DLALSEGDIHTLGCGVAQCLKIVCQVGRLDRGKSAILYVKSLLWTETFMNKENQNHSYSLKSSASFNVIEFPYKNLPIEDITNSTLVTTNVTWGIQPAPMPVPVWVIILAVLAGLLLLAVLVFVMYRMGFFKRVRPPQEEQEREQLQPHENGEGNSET
Sequence (P26012 43-769 limits assumed): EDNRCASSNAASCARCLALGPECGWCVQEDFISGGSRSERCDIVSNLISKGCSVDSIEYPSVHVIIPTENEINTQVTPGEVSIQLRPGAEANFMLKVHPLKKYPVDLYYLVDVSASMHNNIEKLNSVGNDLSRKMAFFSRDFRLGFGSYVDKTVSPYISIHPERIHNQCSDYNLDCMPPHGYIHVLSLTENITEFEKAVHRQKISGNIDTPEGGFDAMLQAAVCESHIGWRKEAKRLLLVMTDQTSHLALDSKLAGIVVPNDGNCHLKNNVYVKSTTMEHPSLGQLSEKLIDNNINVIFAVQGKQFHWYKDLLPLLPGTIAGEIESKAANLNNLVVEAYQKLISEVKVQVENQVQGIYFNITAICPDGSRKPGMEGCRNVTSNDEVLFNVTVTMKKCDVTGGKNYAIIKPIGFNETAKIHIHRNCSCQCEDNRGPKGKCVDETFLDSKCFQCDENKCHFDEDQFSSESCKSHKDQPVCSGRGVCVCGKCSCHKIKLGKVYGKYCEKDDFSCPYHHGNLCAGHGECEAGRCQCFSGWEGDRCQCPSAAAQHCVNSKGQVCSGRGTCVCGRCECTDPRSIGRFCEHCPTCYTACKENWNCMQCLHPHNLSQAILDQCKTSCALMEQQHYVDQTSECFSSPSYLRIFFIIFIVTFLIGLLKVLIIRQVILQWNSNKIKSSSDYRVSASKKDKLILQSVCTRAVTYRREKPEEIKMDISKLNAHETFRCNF
One number for each entry, as −log10 of the molar value.

molecule="CC(C)(C)c1cc(Br)cc([C@H](CC(=O)O)NC(=O)CNC(=O)c2cc(O)cc(NC3=NCC(O)CN3)c2)c1 (some centres not stated)" number=9.70

Proceed to the following item.
Entry COc1ccc(S(=O)(=O)N[C@@H](CNc2nc(C)nc(N3CCC(c4ccc5c(n4)NCCC5)CC3)c2C)C(=O)O)cc1 [GLPG-0187] : pIC50 on Integrin alpha-V/beta-8 (Homo sapiens, UniProt P06756+P26012) = 8.92

====

Please go through the items and note down their pIC50.
molecular target: Integrin alpha-V/beta-1 (Homo sapiens, UniProt P05556+P06756); experiment: Antagonist activity at alphavbeta1 integrin receptor (unknown origin) by cell-free ELISA; type: protein-complex assay
One number for each entry, as −log10 of the molar value.

State recorded pIC50 for all listed compounds.
1. COc1ccc(S(=O)(=O)N[C@@H](CNc2nc(C)nc(N3CCC(c4ccc5c(n4)NCCC5)CC3)c2C)C(=O)O)cc1
2. CC(C)(C)c1cc(Br)cc([C@H](CC(=O)O)NC(=O)CNC(=O)c2cc(O)cc(NC3=NCC(O)CN3)c2)c1 (some centres not stated)

Ans:
1. 8.89
2. 8.74

====

biological target: Integrin alpha-V/beta-3 (Homo sapiens, UniProt P05106+P06756); test: Antagonist activity at alphavbeta3 integrin receptor in HEK293 cells after 4 hrs using p-nitrophenyl phosphate by colorimetry; assay type: cell-based
Sequence (P05106 27-788 limits assumed): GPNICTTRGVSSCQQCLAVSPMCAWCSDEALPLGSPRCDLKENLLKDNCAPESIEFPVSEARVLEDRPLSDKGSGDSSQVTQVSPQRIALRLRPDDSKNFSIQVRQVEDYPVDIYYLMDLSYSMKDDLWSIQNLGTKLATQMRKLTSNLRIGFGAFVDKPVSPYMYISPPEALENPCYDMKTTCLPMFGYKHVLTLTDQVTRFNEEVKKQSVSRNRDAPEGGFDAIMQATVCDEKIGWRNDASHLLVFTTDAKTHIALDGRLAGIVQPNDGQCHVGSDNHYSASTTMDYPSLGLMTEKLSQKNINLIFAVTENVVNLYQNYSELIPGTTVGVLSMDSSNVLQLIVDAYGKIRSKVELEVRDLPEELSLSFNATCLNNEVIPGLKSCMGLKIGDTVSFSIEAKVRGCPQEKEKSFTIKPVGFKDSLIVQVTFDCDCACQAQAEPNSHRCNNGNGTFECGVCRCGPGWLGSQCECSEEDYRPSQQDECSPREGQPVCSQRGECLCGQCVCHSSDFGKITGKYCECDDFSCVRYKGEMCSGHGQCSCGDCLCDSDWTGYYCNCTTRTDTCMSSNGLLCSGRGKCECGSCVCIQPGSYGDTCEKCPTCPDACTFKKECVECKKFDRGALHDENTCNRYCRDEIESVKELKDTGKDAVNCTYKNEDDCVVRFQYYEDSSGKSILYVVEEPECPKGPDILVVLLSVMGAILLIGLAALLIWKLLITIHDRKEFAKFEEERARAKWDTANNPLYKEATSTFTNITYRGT
Sequence (P06756 31-889 limits assumed): as the sequence (P06756 31-889 limits assumed) above
Sequence (P06756 891-1048 limits assumed): as the sequence (P06756 891-1048 limits assumed) above
quantity name: IC50
# number then unit; no other words

IC50 recorded for this compound, O=C(O)C[C@H](NC(=O)CNC(=O)c1cc(O)cc(NC2=NCC(O)CN2)c1)c1cc(Cl)cc(Br)c1O (stereo partly specified) , is 1.6 nM

====

molecular target: Integrin alpha-V/beta-5 (Homo sapiens, UniProt P06756+P18084); assay: Antagonist activity at alphavbeta5 integrin receptor (unknown origin) by cell-based ELISA
quantity name: pIC50
Answers are plain numbers, as −log10 of the molar value.

Check out these entries, answers already filled in.
compound=Cc1cc(C)c(S(=O)(=O)N[C@@H](CNC(=O)c2ccc(-c3cccc(CN=C(N)N)c3)s2)C(=O)O)c(C)c1 quantity_name=pIC50 number=7.22
compound="N=C(N)NCCCCC(=O)NCC(=O)NC(CC(=O)O)c1cccnc1 (stereo not drawn)" quantity_name=pIC50 number=7.64

Proceed to the following item.
pIC50 recorded for this compound, CC(C)(C)c1cc(Br)cc([C@H](CC(=O)O)NC(=O)CNC(=O)c2cc(O)cc(NC3=NCC(O)CN3)c2)c1 (stereo partly drawn) , is 7.21

====

target: Integrin alpha-V/beta-5 (Homo sapiens) [+]; assay: Antagonist activity at alphavbeta5 integrin receptor in HEK293 cells after 4 hrs using p-nitrophenyl phosphate by colorimetry
Please go through the items and note down their IC50.
Numbers only, in nM.

compound="O=C(O)C[C@H](NC(=O)CNC(=O)c1cc(O)cc(NC2=NCC(O)CN2)c1)c1cc(Cl)cc(Br)c1O (some centres not stated)" number=18.1

Proceed to the following item.
IC50 recorded for this compound, O=C(O)C[C@H](NC(=O)CNC(=O)c1cncc(N=C2NCC(O)CN2)c1)c1cc(Cl)cc(Br)c1O (some centres not stated) , is 1.5

====

target: Integrin alpha-10/Integrin beta-1 (Homo sapiens, UniProt O75578+P05556); assay: Antagonist activity at alpha10beta1 integrin receptor (unknown origin) by cell-free ELISA
quantity name: IC50

IC50 recorded for this compound, CC(C)(C)c1cc(Br)cc([C@H](CC(=O)O)NC(=O)CNC(=O)c2cc(O)cc(NC3=NCC(O)CN3)c2)c1 (stereo partly specified) , is > 5 µM

====

Please go through the items and note down their IC50.
target: Integrin alpha-V/beta-1 (Homo sapiens, UniProt P05556+P06756); test: Antagonist activity at alphavbeta1 integrin receptor in HEK293 cells after 4 hrs using p-nitrophenyl phosphate by colorimetry; type: cell-based
Answers are plain numbers, in nM.

State recorded IC50 for all listed molecules.
1. O=C(O)C[C@H](NC(=O)CNC(=O)c1cc(O)cc(NC2=NCC(O)CN2)c1)c1cc(Cl)cc(Br)c1O (some centres not stated)
2. O=C(O)C[C@H](NC(=O)CNC(=O)c1cncc(N=C2NCC(O)CN2)c1)c1cc(Cl)cc(Br)c1O (some centres not stated)

Ans:
1: 10.4; 2: 1.59

====

biological target: Integrin alpha-V/beta-3 (Homo sapiens, UniProt P05106+P06756); experiment: Antagonist activity at alphavbeta3 integrin receptor (unknown origin) by cell-free ELISA; format: protein-complex assay
Please go through the items and note down their pIC50.
One number for each entry, as −log10 of the molar value.

Check out these entries, answers already filled in.
molecule=COc1ccc(S(=O)(=O)N[C@@H](CNc2nc(C)nc(N3CCC(c4ccc5c(n4)NCCC5)CC3)c2C)C(=O)O)cc1 quantity_name=pIC50 number=8.43
molecule=O=C(N[C@@H](CNC(=O)c1ccc(CN(Cc2nc3ccccc3[nH]2)C(=O)NC2CCCCC2)cc1)C(=O)O)OCc1ccccc1 quantity_name=pIC50 number=8.49
molecule=N=C(N)NCCC[C@H](NC(=O)OCc1ccccc1)[C@H]1CC[C@H](C(=O)NC[C@H](NC(=O)OCc2ccccc2)C(=O)O)O1 quantity_name=pIC50 number=7.28
molecule="O=C(O)CC1CC(CNC(=O)CCCNc2ccccn2)=CCc2ccccc21 (configuration not stated)" quantity_name=pIC50 number=8.70
molecule=C=Cc1cnc(NC[C@@H]2C[C@]3(CC(C(=O)NC[C@H](NS(=O)(=O)c4c(C)cc(C)cc4C)C(=O)O)=NO3)CN2C(=O)OCCCC)[nH]1 quantity_name=pIC50 number=7.06

State recorded pIC50 for all listed molecules.
1. N=C(N)NCCCc1cn(CC(=O)N[C@@H](CC(=O)O)c2ccccc2)nn1
2. N=C(N)NCCCCC(=O)NCC(=O)NC(CC(=O)O)c1cccnc1 (configuration not stated)

Ans:
1: 8.87; 2: 8.00

====

target: Integrin alpha-V/beta-6 (Homo sapiens, UniProt P06756+P18564); test: Antagonist activity at alphavbeta6 integrin receptor (unknown origin) by cell-free ELISA; type: protein-complex assay
quantity name: IC50 (nM)
Numbers only, in nM.

IC50 recorded for this compound, COc1ccc(S(=O)(=O)N[C@@H](CNc2nc(C)nc(N3CCC(c4ccc5c(n4)NCCC5)CC3)c2C)C(=O)O)cc1 , is 1.4
